The measurements presented in this section are drawn from ChEMBL document CHEMBL2074346.

Target: Broad substrate specificity ATP-binding cassette transporter ABCG2 (Mus musculus)
Sequence (Q7TMS5 whole entry): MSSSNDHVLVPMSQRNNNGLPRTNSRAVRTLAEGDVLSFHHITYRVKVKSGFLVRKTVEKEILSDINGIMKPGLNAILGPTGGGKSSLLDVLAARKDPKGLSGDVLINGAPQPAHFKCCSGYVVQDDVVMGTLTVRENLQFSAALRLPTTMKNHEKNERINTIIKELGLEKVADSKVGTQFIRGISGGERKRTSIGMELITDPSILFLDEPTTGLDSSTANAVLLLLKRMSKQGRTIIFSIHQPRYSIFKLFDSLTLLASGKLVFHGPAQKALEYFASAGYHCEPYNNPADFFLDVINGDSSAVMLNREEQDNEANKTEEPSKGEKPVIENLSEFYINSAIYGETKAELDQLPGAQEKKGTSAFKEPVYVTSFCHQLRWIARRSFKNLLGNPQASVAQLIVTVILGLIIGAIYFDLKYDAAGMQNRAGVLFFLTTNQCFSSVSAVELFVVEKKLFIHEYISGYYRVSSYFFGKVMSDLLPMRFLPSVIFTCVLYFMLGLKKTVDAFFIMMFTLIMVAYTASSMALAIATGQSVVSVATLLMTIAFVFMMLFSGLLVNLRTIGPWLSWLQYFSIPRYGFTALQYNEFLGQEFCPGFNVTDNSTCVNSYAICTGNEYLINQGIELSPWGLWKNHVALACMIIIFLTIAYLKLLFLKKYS
Test: TP_TRANSPORTER: drug resistance in BCRP-expressing MEF3.8 cells
Assay type: functional, cell-based

- Compound: "CC[C@]1(O)C[C@H]2CN(CCc3c([nH]c4ccccc34)[C@@](C(=O)OC)(c3cc4c(cc3OC)N(C=O)[C@H]3[C@@](O)(C(=O)OC)[C@H](OC(C)=O)[C@]5(CC)C=CCN6CC[C@]43[C@@H]65)C2)C1 [VINCRISTINE]"
  Assayed Target: "Broad substrate specificity ATP-binding cassette transporter ABCG2 (Mus musculus)"
  Activity: "substrate []"
- Compound: "O=C1c2c(O)ccc(O)c2C(=O)c2c(NCCNCCO)ccc(NCCNCCO)c21 [MITOXANTRONE]"
  Assayed Target: "Broad substrate specificity ATP-binding cassette transporter ABCG2 (Mus musculus)"
  Activity: "substrate []"
- Compound: "COc1cc([C@@H]2c3cc4c(cc3[C@@H](O[C@@H]3O[C@@H]5CO[C@@H](C)O[C@H]5[C@H](O)[C@H]3O)[C@H]3COC(=O)[C@H]23)OCO4)cc(OC)c1O [ETOPOSIDE]"
  Assayed Target: "Broad substrate specificity ATP-binding cassette transporter ABCG2 (Mus musculus)"
  Activity: "substrate []"
- Compound: "COc1cc([C@@H]2c3cc4c(cc3[C@@H](O[C@@H]3O[C@@H]5CO[C@@H](c6cccs6)O[C@H]5[C@H](O)[C@H]3O)[C@H]3COC(=O)[C@H]23)OCO4)cc(OC)c1O [TENIPOSIDE]"
  Assayed Target: "Broad substrate specificity ATP-binding cassette transporter ABCG2 (Mus musculus)"
  Activity: "substrate []"
- Compound: "C(=N\\NC1=NCCN1)/c1c2ccccc2c(/C=N/NC2=NCCN2)c2ccccc12 [BISANTRENE]"
  Assayed Target: "Broad substrate specificity ATP-binding cassette transporter ABCG2 (Mus musculus)"
  Activity: "substrate []"
- Compound: "COc1cccc2c1C(=O)c1c(O)c3c(c(O)c1C2=O)C[C@@](O)(C(=O)CO)C[C@@H]3O[C@H]1C[C@H](N)[C@H](O)[C@H](C)O1 [DOXORUBICIN]"
  Assayed Target: "Broad substrate specificity ATP-binding cassette transporter ABCG2 (Mus musculus)"
  Activity: "substrate []"
- Compound: "CC[C@@]1(O)C(=O)OCc2c1cc1n(c2=O)Cc2cc3c(CN(C)C)c(O)ccc3nc2-1 [TOPOTECAN]"
  Assayed Target: "Broad substrate specificity ATP-binding cassette transporter ABCG2 (Mus musculus)"
  Activity: "substrate []"
